Ref: patent US12723255B2

Item-by-item account of average injury rating, V8 Growth Stage, 8x 2,4-D
tested on: F1 hybrid maize plants; experiment: efficacy field trial for 2,4-D tolerance; assay type: in vivo; settings: scale 0 to 100; 8 lb ae/acre at VE-V2, V4, V8; with CTP unless label says no CTP
readout name: average injury rating, V8 Growth Stage, 8x 2,4-D

[[record]]
molecule = "MON-HT1: engineered oxygenase protein, amino acid sequence SEQ ID NO:14 (protein) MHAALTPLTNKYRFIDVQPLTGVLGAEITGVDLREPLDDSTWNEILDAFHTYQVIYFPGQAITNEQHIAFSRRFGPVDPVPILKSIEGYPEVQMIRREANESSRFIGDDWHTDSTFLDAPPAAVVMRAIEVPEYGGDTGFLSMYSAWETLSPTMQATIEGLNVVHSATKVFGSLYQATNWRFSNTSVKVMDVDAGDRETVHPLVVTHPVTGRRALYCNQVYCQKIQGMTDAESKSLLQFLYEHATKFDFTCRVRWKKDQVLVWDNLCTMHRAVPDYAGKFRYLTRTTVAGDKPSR"
reported_result = 8.3

[[record]]
molecule = "MON-HT3: engineered oxygenase protein, amino acid sequence SEQ ID NO:22 (protein) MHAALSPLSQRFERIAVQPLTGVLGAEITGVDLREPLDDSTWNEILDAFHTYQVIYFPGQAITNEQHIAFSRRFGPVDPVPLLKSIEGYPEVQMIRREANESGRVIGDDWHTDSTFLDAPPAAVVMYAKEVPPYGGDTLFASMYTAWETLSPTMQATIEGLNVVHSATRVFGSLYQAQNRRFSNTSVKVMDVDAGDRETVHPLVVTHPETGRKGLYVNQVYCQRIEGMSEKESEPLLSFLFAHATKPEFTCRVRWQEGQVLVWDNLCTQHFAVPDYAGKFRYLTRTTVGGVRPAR"
reported_result = 11.3

[[record]]
molecule = "MON-HT4: engineered oxygenase protein, amino acid sequence SEQ ID NO:25 (protein) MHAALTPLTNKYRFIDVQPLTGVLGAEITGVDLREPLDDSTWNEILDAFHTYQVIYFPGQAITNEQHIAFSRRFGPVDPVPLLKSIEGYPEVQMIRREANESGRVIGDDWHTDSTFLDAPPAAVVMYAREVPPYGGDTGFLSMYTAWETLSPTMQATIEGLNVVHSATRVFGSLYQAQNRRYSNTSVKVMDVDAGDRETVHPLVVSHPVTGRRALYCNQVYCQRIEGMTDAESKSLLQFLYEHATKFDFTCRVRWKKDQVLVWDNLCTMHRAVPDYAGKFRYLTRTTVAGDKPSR"
reported_result = 12.5

[[record]]
molecule = "MON-HT5: engineered oxygenase protein, amino acid sequence SEQ ID NO:28 (protein) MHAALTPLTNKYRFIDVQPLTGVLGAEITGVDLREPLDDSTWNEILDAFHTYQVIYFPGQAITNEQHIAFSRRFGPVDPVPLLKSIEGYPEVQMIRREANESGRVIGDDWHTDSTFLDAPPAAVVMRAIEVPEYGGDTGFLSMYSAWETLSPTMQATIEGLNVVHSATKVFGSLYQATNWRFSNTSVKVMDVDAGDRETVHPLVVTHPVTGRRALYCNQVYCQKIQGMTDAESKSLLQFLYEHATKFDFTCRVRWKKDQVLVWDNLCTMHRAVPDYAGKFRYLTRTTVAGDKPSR"
reported_result = 10.0

